biological target: EGFR (human), P00533 [Antiproliferation of H195 Cells Having Overexpressed EGFR T790 Mutant Kinase]
Sequence (P00533 whole entry, looked up, change not shown): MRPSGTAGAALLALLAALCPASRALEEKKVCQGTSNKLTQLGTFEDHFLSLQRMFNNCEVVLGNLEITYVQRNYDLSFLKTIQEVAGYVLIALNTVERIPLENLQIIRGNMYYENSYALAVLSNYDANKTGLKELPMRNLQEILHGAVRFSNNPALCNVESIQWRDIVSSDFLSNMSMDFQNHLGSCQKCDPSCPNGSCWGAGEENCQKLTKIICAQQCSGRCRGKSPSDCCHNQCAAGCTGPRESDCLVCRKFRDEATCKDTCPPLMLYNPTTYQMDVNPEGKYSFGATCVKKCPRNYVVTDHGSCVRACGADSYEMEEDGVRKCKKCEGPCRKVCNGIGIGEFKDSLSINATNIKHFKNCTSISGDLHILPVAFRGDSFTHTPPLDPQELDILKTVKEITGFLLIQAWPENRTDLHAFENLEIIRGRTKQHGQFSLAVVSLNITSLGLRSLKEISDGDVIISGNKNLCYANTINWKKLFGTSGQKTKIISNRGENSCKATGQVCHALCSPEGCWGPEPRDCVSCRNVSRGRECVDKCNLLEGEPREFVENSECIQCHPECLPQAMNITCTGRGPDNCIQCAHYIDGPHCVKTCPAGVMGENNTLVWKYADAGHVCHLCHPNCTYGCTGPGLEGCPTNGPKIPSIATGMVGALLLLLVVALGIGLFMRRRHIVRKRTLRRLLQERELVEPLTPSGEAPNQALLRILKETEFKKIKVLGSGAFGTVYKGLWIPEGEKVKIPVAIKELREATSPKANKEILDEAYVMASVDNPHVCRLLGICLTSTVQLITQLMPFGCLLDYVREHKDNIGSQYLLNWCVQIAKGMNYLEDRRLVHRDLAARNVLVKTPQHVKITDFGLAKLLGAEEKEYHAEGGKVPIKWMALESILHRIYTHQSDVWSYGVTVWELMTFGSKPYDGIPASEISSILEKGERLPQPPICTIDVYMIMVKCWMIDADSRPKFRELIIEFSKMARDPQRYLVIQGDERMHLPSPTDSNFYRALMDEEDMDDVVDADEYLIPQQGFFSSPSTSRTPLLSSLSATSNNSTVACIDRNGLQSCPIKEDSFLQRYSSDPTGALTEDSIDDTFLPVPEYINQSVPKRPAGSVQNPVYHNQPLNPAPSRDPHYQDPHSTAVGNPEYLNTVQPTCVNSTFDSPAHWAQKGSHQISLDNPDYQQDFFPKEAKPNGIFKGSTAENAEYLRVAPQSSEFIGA
Attribute Measured: IC50 (nM)
# value in nM; strip the unit string

Take a look at these entries with their results.
Input Smiles	IC50 / nM
C=CC(=O)N1CC[C@H](Oc2cc3c(Nc4ccc(F)c(Cl)c4F)ncnc3cc2OC)C[C@H]1C(=O)NCCS(C)(=O)=O	50.4
C=CC(=O)N1CC[C@H](Oc2cc3c(Nc4ccc(F)c(Cl)c4F)ncnc3cc2OC)C[C@H]1C(N)=O	5.2
C=CC(=O)N1CCC(Oc2cc3c(Nc4cccc(Br)c4)ncnc3cc2OC)CC1	96

Task: Please give measured IC50 of the following entry: C=C(NC(C)=O)C(=O)N1CC(Oc2cc3c(Nc4ccc(F)c(Cl)c4F)ncnc3cc2OC)C1
Result: 50

Task: Please give measured IC50 of the following entry: C=CC(=O)N1CC[C@H](Oc2cc3c(Nc4ccc(F)c(Cl)c4F)ncnc3cc2OC)C[C@H]1C(=O)NCCOC
Result: 11

Task: Please give measured IC50 of the following entry: C=CC(=O)N1CC[C@H](Oc2cc3c(Nc4ccc(F)c(Cl)c4F)ncnc3cc2OC)C[C@H]1C(=O)NCCSC
Result: 5
